The reported measurements were obtained from ChEMBL document CHEMBL4339248.

test system: PC-3; experiment: Cytotoxicity in human PC3 cells assessed as reduction in cel viability incubated for 24 or 72 hrs by SRB or MTT assay; format: functional, cell-based
pIC50: −log10 of the molar value.
endpoint: pIC50

Look over these answered cases.
CCCCC[C@@H](CCCCCCCCCCCc1cc(O)cc(O)c1C(=O)O)OS(=O)(=O)O < 4.52
CCCCC[C@H](O)CCCCCCCCCCCc1cc(O)cc(O)c1 < 4.52

With those in mind, consider the next molecule.
Exercise: Under PC-3: pIC50 value of CCCCC[C@H](O)CCCCCCCCCCCc1cc(O)cc(O)c1C(=O)O ?
Solution: < 4.52

====

tested on: MDA-MB-231; assay: Cytotoxicity in human MDA-MB-231 cells assessed as reduction in cel viability incubated for 24 or 72 hrs by SRB or MTT assay; format: functional, cell-based
endpoint: IC50

Answered examples (2):
CCCCC[C@H](O)CCCCCCCCCCCc1cc(O)cc(O)c1 > 30 µM
CCCCC[C@@H](CCCCCCCCCCCc1cc(O)cc(O)c1C(=O)O)OS(=O)(=O)O > 30 µM

Consider the record given below.
Exercise: Fill in the blank: the reported IC50 of CCCCC[C@H](O)CCCCCCCCCCCc1cc(O)cc(O)c1C(=O)O is ____.
Solution: > 30 µM

====

Parameter pIC50: see the listing below.
tested on: HCT-116; assay: Cytotoxicity in human HCT116 cells assessed as reduction in cel viability incubated for 24 or 72 hrs by SRB or MTT assay; format: functional, cell-based
pIC50: −log10 of the molar value.

CCCCC[C@@H](CCCCCCCCCCCc1cc(O)cc(O)c1C(=O)O)OS(=O)(=O)O < 4.52

Exercise: Need pIC50 of CCCCC[C@H](O)CCCCCCCCCCCc1cc(O)cc(O)c1 , thanks.
Solution: < 4.52

Exercise: Report pIC50 for CCCCC[C@H](O)CCCCCCCCCCCc1cc(O)cc(O)c1C(=O)O please.
Solution: < 4.52

====

system: Bel-7402; experiment: Cytotoxicity in human Bel7402 cells assessed as reduction in cel viability incubated for 24 or 72 hrs by SRB or MTT assay; type: functional, cell-based
pIC50: −log10 of the molar value.
Measured pIC50 by item

Some molecules with recorded pIC50:
CCCCC[C@H](O)CCCCCCCCCCCc1cc(O)cc(O)c1 < 4.52
CCCCC[C@H](O)CCCCCCCCCCCc1cc(O)cc(O)c1C(=O)O < 4.52

Now take the following molecule into account.
Exercise: Consider the molecule CCCCC[C@@H](CCCCCCCCCCCc1cc(O)cc(O)c1C(=O)O)OS(=O)(=O)O and give its measured pIC50.
Solution: < 4.52
